- TEST_DETAILS: yeast display, Sf9 membrane polyspecificity reagent, FACS + sequencing; frameworks hold sequencing errors
ASSAY_METRIC: polyreactivity (PSR sort gate)

Field: example entries. Status: answers known.
QVQLVDSAGGLVQAGGSLRLSCAASGLTFPPNAMGWYRQAPGKEREFVAVISSGGGSTYYADSVKGRFTISRDNAKNTVYLQMNSLKPEDTAVYYCATEYQDGDTEYYYWGQGTQVTVSS
low polyreactivity
QVQLVESGGGLVQAGGSLRLSCAASGRTFSWYVMGWYRQAPGKERELVAAISWNGGRTYYADSVKGRFTISRDNAKNTVYLQMNSLKPEDTAVYYCNRDYYWRDGAKYIDDYWGQGTQVTVSS
high polyreactivity
QVQLVESGGCLVQAQGSLRLSCAASGFTFGYNAMGWYRQAPGKERELVAVISSRGGRTYYADSVKGRFTISRDNAKNTVYLQMYSLKPEDTAVYYCAKRSGSYSYPAVGGWGLGYCGQGTQVTVSS
high polyreactivity
QVQLVESGGGLVQAGGSLRLSCAASGRTFYTYAMGWYRQAPGKERELVAAISSSGSTYYADSVKGRFTISRDNAKNTVYLQMNSLKPEDTAVYYCNARTSRYRRGGDSWGQGTQVTVSS
high polyreactivity
QVQLVESGGGLVQAGGSLRLSCAASGFTFWDYDLGWSRQATGKERELVAAISDNDGSTDYADSVKGRITISRDNVKNTVFLQMNRLKPEESAVYYCNAEIEMPSKEGDYWGLGTQVTVSS
low polyreactivity

Exercise: Return reported polyreactivity (PSR sort gate); argument: QVQLVETGGGLVQAGGSLRLICAASGSTFWRNAMGWYRQAPGKERELVATISKSGGRTYYADSVKGRFTISRDNAKNTVYLQMNRLKPEDTAVYYCAADQYWYKPYVGELYDYDYWGQGTQVTVSS
Solution: low polyreactivity

Exercise: # repeat for QVQLVESGGGLVQAGGSLRLSCAASGSTFGSYGMGGYRQAPGKERELVAGITSSGSTYYADSVKGRFTISRDNAKNTVYLQMNSLKPDDTAVYYCNARSGIDWYYDNDYWGQGTQVTVSS
Solution: low polyreactivity

Exercise: # repeat for QVQLVESGRGLVEAGGSLRLSCAASGFIFLPYAMVWYRQAPGKERELVAAITRGGRTYYADSVNRRFTISRDNAKNTVYLQMNSLKPEDTAVYDCAATTYLVWGYNYWGQGTQVTVSS
Solution: low polyreactivity

Exercise: # repeat for QVQLVESGGGLVQAGGSLSLSCAATGTNFCHNAMGWYRPAPWKERELGAGITSVGSTYFAYSVKGRFTISRDNAKNTVYLQMNSLKPEDTAVYYSAKGYDFRRSYEYWGQGTQVNVSS
Solution: low polyreactivity

Exercise: # repeat for QVQLVESGGGLVQAGGSLRLSCAASGRTFYDNAMGWYRQAPGKERELVAVISRSGSTYYADSVKGRFTISRDNAKNTVYLQMNSLKPEDTAVYYCARRGVWGVTYSRLYHWGQGTLVTVSS
Solution: high polyreactivity

Exercise: # repeat for QVQLVESGGGLVQAGGSLRLSCAASGSTFYYYTMGWSRQAPGKERELVAAITYSGGSTRYADSVKGRFTISRDNAKNTVYLQMNSLKPEDTAVYYCAAELTEWTNGFDYWGQGTQVTVSS
Solution: high polyreactivity

====

- TEST_DETAILS: yeast display, Sf9 membrane polyspecificity reagent, FACS + sequencing; frameworks hold sequencing errors
ASSAY_METRIC: polyreactivity (PSR sort gate)

QVQLVESGGGLVQAGGSLRLSCAASGFTFRFYAMGWYRQAPGKERELVAAISYNGGSTYYADSVKGRFTISRDNAKNTVYLQMNSLKPEDTAVYYCAAGYYWQYTSSSAQYAYDYWGQGTQVTVSS
low polyreactivity
QVQLVESGGGLVQAGGSLRLSCAASGSIFGAYAMGWYRQAPGKERELVAAINYGGATTYYADSVKGRFTISRDNAKNTVYLQMNSLKPEDTAVYYCAADYLYAYGDVAVVYGWYAYYYWGQGTQVTVSS
low polyreactivity

====

- TEST_DETAILS: yeast display, Sf9 membrane polyspecificity reagent, FACS + sequencing; frameworks hold sequencing errors
ASSAY_METRIC: polyreactivity (PSR sort gate)

QVQRVESGGGLVQAGGSLRLSCAASGYTSQVKDMGWYRQAPGKERELVAAISSTGDRTYYADSVKGRFTISRDNAKNTVYLQMNSLKPEDTAVYYCNADLTSYYEEDERNDDDYWGQGTQVTVSS
low polyreactivity
QVQLVESGGGLVQAGGSLRLSCAASGSIFLLYAMGWYRQAPGKERELVARISWSGDNTRYADSVKGRFTISRDNEKNTVYLQMNSLKPEDTAFYYCNAVTFSWDYGYWGQGSQVTVSS
low polyreactivity

====

- TEST_DETAILS: yeast display, Sf9 membrane polyspecificity reagent, FACS + sequencing; frameworks hold sequencing errors
ASSAY_METRIC: polyreactivity (PSR sort gate)

QVQLVESGGGLVQAGGSLRLSCAASGFTFEWNTMGWYRQAPGKERELVARINWSSGRTYYADSVKGRFTISRDNAKNTVYLQMNSLKPEDTAVYYCAASPYHSAYQNMDYWGQGTQVTVSS
high polyreactivity
QVQLVESGGGLVQAGGSLRLSCAASGSTFQSYAMGWYRQAPGKERELVAAISFSGGSTYYADSVKGRFTNSRDNSKNTVYLQMNSLIPEDTAVYYCAKRGWVYFHGYDYWGQGTQVTVSS
low polyreactivity
QVQHVESGGCLVQAGGSLRLSCASSGRTFARYAMGWSRQPPGKDSELVAAITRRGGSTYYADSVKGRFTLSRDNAKNTVSLQMNSLKPEDTAVYYCAAHYRNFGIGAYEYWGKGTQVTVSS
high polyreactivity
QVQLVESGGGLVQAGGSLRLSCAASGRIFGRNAMGWYRQAPGKERELVAAISSSGRTYYADSVKGRFTISRDNAKNTVYLQMNSLKPEDTAVYYCAAYGYSWGQGTQVTVSS
high polyreactivity
QVQLVESGRGLVQAGGSLRLSCAASGFIFGGYAMGWYRQAPGKERELVAAISRSGGSTYYADSVKGRFTISRDNAKNTVYLQMNSLKPEDTAVYYCAAKFWPEDHRLDYWGQGTQVTVSS
low polyreactivity

Exercise: Return reported polyreactivity (PSR sort gate); argument: QVQLVESGGGLVQAGGSLRLSCAASGRIFYRNAMGWYRQAPGQERELDAGITRGGSTNYADSVKGRFTISRDNAKNTVYLQMNSLKPEDTAVYYCAKAIPAKFYSEAGYDYWGQGTQVTVSS
Solution: low polyreactivity

Exercise: # repeat for QVQHVESGRGFVKAGCSLRLSCASSGSIFVKNAMGRYRQAPGKERELVARITYSGGSTYYADSVKGRFTISRDNAKNTVYLQMNSVKPEDNAGYYCARTRKIAGYYYWGQGTQVTESS
Solution: high polyreactivity

Exercise: # repeat for QVQLVESGGGLVQAGGSLRLSCAASGRIFYYYALGWYRQAPGKERELVAAISSIDGTTYYADSVKGRFTISRDNAKNTVYLQMNSLKPEDTAVYYCAAEDPADQYDYWGQGTQVTVSS
Solution: high polyreactivity

Exercise: # repeat for QVQLVESVGGLVQAGGSLRLSCAASGSNFGSYAMGWYRQAPGKERSTYYADSVKGRFTISRDNAKNTVYLQMNSLKPEDTAVYYCAADTYGYQGSAGGHWGQGTQVTVSS
Solution: low polyreactivity

Exercise: # repeat for QVQLVESGGGLVQARGSLRLSCAASVGTFGSNNMGCYRQAPGKDRELVAAITSGVSTNYADSVKGRFTITRYIAKNTVYLQMNSLKPEDTAVNYSAAGTQAHAYVVRPIEMDYWGQGTQVTVSS
Solution: low polyreactivity

Exercise: # repeat for QVQLVESGGGLVQAGGSLRLSCAASGRTFGYNAMGWYRQAPGKVRELVAAITSGGSTYYADSVKGRFTISRDNAKNTVYLQMNSLKPEDTAVYYCNARYPGFWSGWEEYWGQGTQVTVSS
Solution: high polyreactivity

====

- TEST_DETAILS: yeast display, Sf9 membrane polyspecificity reagent, FACS + sequencing; frameworks hold sequencing errors
ASSAY_METRIC: polyreactivity (PSR sort gate)

Field: example entries. Status: answers known.
QFQLVESGGGLVQAGGSLRLSCAASGRIFRYYSMGCYIQSPGKERELVAAITRGGSTNYADSVKGRFTISGDNANNNVYLQMNSLKPEDSAVYYCAVRGCYTWPTYNYWGHGTQVTVSS
high polyreactivity
QVQLVESGGGLVQAGGSLRLSCAASGSIFLYNAMGWYRQAPGKERELVASITYGSGSTYYADSVKGRFTISRDNAKNTVYLQMNSLKPEDTAVYYCAATRYYRHGRYDSWGQGTQVTVSS
high polyreactivity
QVQLVESGGGLVQAGGSLRLSCAASGRTFGRNVMGWYRQAPGKERELVAAISRSGGSTYYADSVKGRFTISRDNAKNTVYLQMNSLKPEDTAVYYCAAKYYRDRDWGQGTQVTVSS
high polyreactivity
QDQLVESGGGLVQAGGSLRLSCAASGFTFYTNVMGWYRQAPGKERELVAAINSGGSTNYADSVKGRFTISRDNAKNTVYLQMNSMKPEDTAVYYCNKSGTEIGYDYWGQGTQVTVLS
low polyreactivity

Exercise: Return reported polyreactivity (PSR sort gate); argument: QVQLVESGGGLVQAGGSLRLSCAASGRTFWGYAMGWYRQAPGKERELVAAISCRGGRTYYADSVKGRFTISRDNAKNTVYLQMNSLKPEDTAVYYCNRAYLLRPDLYDYWGQGTQVTVSS
Solution: low polyreactivity

# credit: the nanobody polyreactivity screen of Harvey et al. (2022)
